Experiment: Metabolic stability in human liver microsomes
Type: in vitro ADME
Settings: heat inactivated microsomes without NADPH
OUTCOME_MEASURE: Remaining Percentage of 60 min (%), Human, Heat-inactivated Control

>  <COMPOUND>
CC(C)(C)c1ccc(O)c(C(=O)Nc2cc(C(=O)O)ccc2Cl)c1 [Compound 600494]

>  <MEASUREMENT_UNITS>
%

>  <RECORDED_MEASUREMENT>
114.2

$$$$
>  <COMPOUND>
CC(C)(C)c1cc(C(=O)Nc2ccc(C(=O)O)cc2Cl)c(O)c(C(C)(C)C)c1 [Compound 600453]

>  <MEASUREMENT_UNITS>
%

>  <RECORDED_MEASUREMENT>
93.7

$$$$
>  <COMPOUND>
CC(C)(C)c1ccc(O)c(C(=O)Nc2ccc(C(=O)O)cc2Cl)c1 [Compound 500200]

>  <MEASUREMENT_UNITS>
%

>  <RECORDED_MEASUREMENT>
96.6

$$$$
>  <COMPOUND>
CC(C)(C)c1ccc(O)c(C(=O)Nc2ccc(C(=O)O)cc2C(F)(F)F)c1 [Compound 500873]

>  <MEASUREMENT_UNITS>
%

>  <RECORDED_MEASUREMENT>
91.1

$$$$
>  <COMPOUND>
COC(=O)c1ccc(NC(=O)c2cccc(C(C)(C)C)c2O)c(Cl)c1 [Compound 600489]

>  <MEASUREMENT_UNITS>
%

>  <RECORDED_MEASUREMENT>
66.6

$$$$

---

Assay: Pharmacokinetic profile in Sprague Dawley rats (IV and PO)
Format: in vivo
Conditions: IV 1 mg/kg, Mean + SD (n = 3)
OUTCOME_MEASURE: V ss_obs (L/kg)

>  <COMPOUND_STRUCTURE_STRING>
CC(C)(C)c1ccc(O)c(C(=O)Nc2ccc(C(=O)O)cc2Cl)c1

>  <OUTCOME_MEASURE>
V ss_obs

>  <RECORDED_MEASUREMENT>
0.13

$$$$
>  <COMPOUND_STRUCTURE_STRING>
CC(C)(C)c1cc(C(=O)Nc2ccc(C(=O)O)cc2Cl)c(O)c(C(C)(C)C)c1

>  <OUTCOME_MEASURE>
V ss_obs

>  <RECORDED_MEASUREMENT>
0.60

$$$$
>  <COMPOUND_STRUCTURE_STRING>
CC(C)(C)c1ccc(O)c(C(=O)Nc2ccc(C(=O)O)cc2C(F)(F)F)c1

>  <OUTCOME_MEASURE>
V ss_obs

>  <RECORDED_MEASUREMENT>
0.11

$$$$
>  <COMPOUND_STRUCTURE_STRING>
CC(C)(C)c1ccc(O)c(C(=O)Nc2cc(C(=O)O)ccc2Cl)c1

>  <OUTCOME_MEASURE>
V ss_obs

>  <RECORDED_MEASUREMENT>
0.13

$$$$

---

Assay: Metabolic stability in mouse liver microsomes
Type: in vitro ADME
Conditions: 0.5mg/ml microsomes and 1mM NADPH; 60 min
Measured Remaining Percentage of 60 min (%), Mouse, Tested Sample by item
OUTCOME_MEASURE: Remaining Percentage of 60 min (%), Mouse, Tested Sample

>  <COMPOUND_STRUCTURE_STRING>
CC(C)(C)c1cc(C(=O)Nc2ccc(C(=O)O)cc2Cl)c(O)c(C(C)(C)C)c1

>  <MEASUREMENT_UNITS>
%

>  <RECORDED_MEASUREMENT>
88.1

$$$$
>  <COMPOUND_STRUCTURE_STRING>
CC(C)(C)c1ccc(O)c(C(=O)Nc2ccc(C(=O)O)cc2C(F)(F)F)c1

>  <MEASUREMENT_UNITS>
%

>  <RECORDED_MEASUREMENT>
107.5

$$$$
>  <COMPOUND_STRUCTURE_STRING>
CC(C)(C)c1ccc(O)c(C(=O)Nc2cc(C(=O)O)ccc2Cl)c1

>  <MEASUREMENT_UNITS>
%

>  <RECORDED_MEASUREMENT>
109.6

$$$$
>  <COMPOUND_STRUCTURE_STRING>
COC(=O)c1ccc(NC(=O)c2cccc(C(C)(C)C)c2O)c(Cl)c1

>  <MEASUREMENT_UNITS>
%

>  <RECORDED_MEASUREMENT>
2.7

$$$$
>  <COMPOUND_STRUCTURE_STRING>
CC(C)(C)c1ccc(O)c(C(=O)Nc2ccc(C(=O)O)cc2Cl)c1

>  <MEASUREMENT_UNITS>
%

>  <RECORDED_MEASUREMENT>
101.2

$$$$

---

Tested on: Salmonella typhimurium TA100
Details: 25 ug/Well; with S9
Measured Mean Revertant Colony Counts TA-100 SP9+ by item

>  <COMPOUND>
O=C(Nc1ccc([N+](=O)[O-])cc1Cl)c1cc(Cl)ccc1O [Niclosamide]

>  <Mean Revertant Colony Counts TA-100 SP9+>
2.3

$$$$
>  <COMPOUND>
CC(C)(C)c1ccc(O)c(C(=O)Nc2ccc(C(=O)O)cc2Cl)c1

>  <Mean Revertant Colony Counts TA-100 SP9+>
22.0

$$$$
>  <COMPOUND>
CC(C)(C)c1ccc(O)c(C(=O)Nc2cc(C(=O)O)ccc2Cl)c1

>  <Mean Revertant Colony Counts TA-100 SP9+>
22.0

$$$$
>  <COMPOUND>
CC(C)(C)c1cc(C(=O)Nc2ccc(C(=O)O)cc2Cl)c(O)c(C(C)(C)C)c1

>  <Mean Revertant Colony Counts TA-100 SP9+>
34.0

$$$$
>  <COMPOUND>
CC(C)(C)c1ccc(O)c(C(=O)Nc2ccc(C(=O)O)cc2C(F)(F)F)c1

>  <Mean Revertant Colony Counts TA-100 SP9+>
16.7

$$$$

---

Assay: Pharmacokinetic profile in Sprague Dawley rats (IV and PO)
Type: in vivo
Details: Sprague Dawley, rat, plasma, po, 5 mg/kg, PO 5 mg/kg vs IV 1 mg/kg, Mean + SD (n = 3), read-out: F (oral bioavailability)
OUTCOME_MEASURE: bioavailability (%)

>  <COMPOUND_STRUCTURE_STRING>
CC(C)(C)c1ccc(O)c(C(=O)Nc2cc(C(=O)O)ccc2Cl)c1

>  <OUTCOME_MEASURE>
bioavailability

>  <MEASUREMENT_UNITS>
%

>  <RECORDED_MEASUREMENT>
14

$$$$
>  <COMPOUND_STRUCTURE_STRING>
CC(C)(C)c1cc(C(=O)Nc2ccc(C(=O)O)cc2Cl)c(O)c(C(C)(C)C)c1

>  <OUTCOME_MEASURE>
bioavailability

>  <MEASUREMENT_UNITS>
%

>  <RECORDED_MEASUREMENT>
64

$$$$
>  <COMPOUND_STRUCTURE_STRING>
CC(C)(C)c1ccc(O)c(C(=O)Nc2ccc(C(=O)O)cc2Cl)c1

>  <OUTCOME_MEASURE>
bioavailability

>  <MEASUREMENT_UNITS>
%

>  <RECORDED_MEASUREMENT>
2.26

$$$$
>  <COMPOUND_STRUCTURE_STRING>
CC(C)(C)c1ccc(O)c(C(=O)Nc2ccc(C(=O)O)cc2C(F)(F)F)c1

>  <OUTCOME_MEASURE>
bioavailability

>  <MEASUREMENT_UNITS>
%

>  <RECORDED_MEASUREMENT>
10

$$$$

---

Assay: Pharmacokinetic profile in Sprague Dawley rats (IV and PO)
Assay type: in vivo
Settings: Sprague Dawley, rat, plasma, po, 5 mg/kg, PO 5 mg/kg in PBS, Mean + SD (n = 3)
Measured Cmax by item

>  <COMPOUND>
CC(C)(C)c1ccc(O)c(C(=O)Nc2ccc(C(=O)O)cc2C(F)(F)F)c1 [Compound 500873]

>  <Cmax, ng/mL>
912

$$$$
>  <COMPOUND>
CC(C)(C)c1cc(C(=O)Nc2ccc(C(=O)O)cc2Cl)c(O)c(C(C)(C)C)c1 [Compound 600453]

>  <Cmax, ng/mL>
2050

$$$$
>  <COMPOUND>
CC(C)(C)c1ccc(O)c(C(=O)Nc2cc(C(=O)O)ccc2Cl)c1 [Compound 600494]

>  <Cmax, ng/mL>
1850

$$$$
>  <COMPOUND>
CC(C)(C)c1ccc(O)c(C(=O)Nc2ccc(C(=O)O)cc2Cl)c1 [Compound 500200]

>  <Cmax, ng/mL>
50.8

$$$$

---

Measured AUCl ast/D (IV) by item
Test: Pharmacokinetic profile in Sprague Dawley rats (IV and PO)
Assay type: in vivo
Details: IV 1 mg/kg, Mean + SD (n = 3)

>  <COMPOUND_STRUCTURE_STRING>
CC(C)(C)c1ccc(O)c(C(=O)Nc2ccc(C(=O)O)cc2Cl)c1

>  <AUCl ast/D (IV)>
1940 ng·kg·h/mL/mg

$$$$
>  <COMPOUND_STRUCTURE_STRING>
CC(C)(C)c1cc(C(=O)Nc2ccc(C(=O)O)cc2Cl)c(O)c(C(C)(C)C)c1

>  <AUCl ast/D (IV)>
5400 ng·kg·h/mL/mg

$$$$
>  <COMPOUND_STRUCTURE_STRING>
CC(C)(C)c1ccc(O)c(C(=O)Nc2cc(C(=O)O)ccc2Cl)c1

>  <AUCl ast/D (IV)>
18200 ng·kg·h/mL/mg

$$$$
>  <COMPOUND_STRUCTURE_STRING>
CC(C)(C)c1ccc(O)c(C(=O)Nc2ccc(C(=O)O)cc2C(F)(F)F)c1

>  <AUCl ast/D (IV)>
13000 ng·kg·h/mL/mg

$$$$
